system-tested: ΔF508-CFTR (Homo sapiens, UniProt P13569, DEL508-508)
Construct: host or cells: CFBE41o-, doxycycline-inducible
Sequence (P13569 with tags, fused parts or gaps DEL508-508): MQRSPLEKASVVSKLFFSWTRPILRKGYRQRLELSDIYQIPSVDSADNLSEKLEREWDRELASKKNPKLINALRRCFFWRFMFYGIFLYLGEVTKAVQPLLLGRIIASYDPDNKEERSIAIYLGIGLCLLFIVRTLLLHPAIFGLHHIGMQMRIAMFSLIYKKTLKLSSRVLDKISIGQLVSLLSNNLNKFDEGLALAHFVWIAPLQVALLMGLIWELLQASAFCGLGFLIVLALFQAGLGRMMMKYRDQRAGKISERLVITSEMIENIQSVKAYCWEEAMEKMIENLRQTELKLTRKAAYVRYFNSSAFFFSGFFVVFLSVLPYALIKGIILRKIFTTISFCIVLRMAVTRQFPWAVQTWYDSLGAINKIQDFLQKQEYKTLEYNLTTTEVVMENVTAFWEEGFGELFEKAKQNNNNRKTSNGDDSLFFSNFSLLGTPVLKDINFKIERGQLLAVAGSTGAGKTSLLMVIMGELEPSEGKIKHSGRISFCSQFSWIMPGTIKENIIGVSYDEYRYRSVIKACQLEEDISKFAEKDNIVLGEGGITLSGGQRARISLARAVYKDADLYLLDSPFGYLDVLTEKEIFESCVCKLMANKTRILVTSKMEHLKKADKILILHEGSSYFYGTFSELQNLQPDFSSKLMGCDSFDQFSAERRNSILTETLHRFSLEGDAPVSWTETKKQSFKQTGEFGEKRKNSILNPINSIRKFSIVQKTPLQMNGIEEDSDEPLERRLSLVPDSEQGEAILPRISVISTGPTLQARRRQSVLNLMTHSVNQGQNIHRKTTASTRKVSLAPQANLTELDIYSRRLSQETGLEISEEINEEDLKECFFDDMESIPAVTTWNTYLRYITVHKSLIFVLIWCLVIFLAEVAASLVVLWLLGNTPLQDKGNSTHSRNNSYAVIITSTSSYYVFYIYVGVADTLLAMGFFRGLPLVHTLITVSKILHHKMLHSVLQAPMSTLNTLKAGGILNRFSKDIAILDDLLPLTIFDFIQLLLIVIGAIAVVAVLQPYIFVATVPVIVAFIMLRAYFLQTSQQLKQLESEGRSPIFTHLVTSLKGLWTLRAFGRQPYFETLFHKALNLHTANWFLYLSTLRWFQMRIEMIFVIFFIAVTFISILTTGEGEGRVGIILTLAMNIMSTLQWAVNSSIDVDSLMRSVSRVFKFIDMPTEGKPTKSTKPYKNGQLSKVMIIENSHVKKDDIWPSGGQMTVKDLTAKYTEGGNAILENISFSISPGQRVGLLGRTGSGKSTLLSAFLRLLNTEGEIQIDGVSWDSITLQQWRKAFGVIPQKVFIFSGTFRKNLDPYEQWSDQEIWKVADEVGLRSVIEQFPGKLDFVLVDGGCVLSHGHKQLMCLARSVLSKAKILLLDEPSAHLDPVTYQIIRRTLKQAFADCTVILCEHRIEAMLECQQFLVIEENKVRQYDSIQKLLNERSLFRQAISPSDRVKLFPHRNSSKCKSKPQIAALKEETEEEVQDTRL
procedure-text: CFTR cell surface levels using HRP-tagged ΔF508-CFTR expressing CFBE cells, intrinsic corrector capacity
Type: cell-based
experimental-conditions: HRP-tagged ΔF508-CFTR CFBE41o- cells, compounds alone (intrinsic corrector capacity), 20 hours at 33° C.; read-out: EC50
property-measured: EC50
Write your answer as a measured quantity: the number, then the unit.

Known results for molecules:
Cc1nn(C2CCCCC2)c2nc(C(=O)O)cc(-c3cnc(N4CCOCC4)nc3)c12	3340 nM
CN(c1ncc(-c2cc(C(=O)O)nc3c2c(C2CCC2)nn3-c2cccc(N3CCCC3)c2)cn1)C1CCOCC1	513 nM
Cc1nn(-c2ccccc2)c2nc(C(=O)O)cc(-c3ccc(N4CCC(N(C)C)C4)cc3)c12 (stereo not shown)	1520 nM

# input for lookup
Fill in reported EC50 for this entry: "COC1CCN(c2cc(C(=O)O)nc3c2c(C2CCC2)nn3-c2ccccc2)CC1"
410 nM

###

system-tested: ΔF508-CFTR (Homo sapiens, UniProt P13569, DEL508-508)
Construct: host or cells: CFBE41o-, doxycycline-inducible
procedure-text: CFTR cell surface levels using HRP-tagged ΔF508-CFTR expressing CFBE cells, in the presence of a co-corrector
Format: cell-based
experimental-conditions: HRP-tagged ΔF508-CFTR expressing CFBE cells, in the presence of 3 μM co-corrector; read-out: EC50
# pEC50 per entry
The meaning of pEC50 here: minus log10 of the concentration in molar units.

Known results for compounds:
CC(C)c1nn(-c2cccc(N3CCC3)c2)c2nc(C(=O)O)cc(-c3ccc(N(C)C4CCOCC4)cc3)c12 [compound 240]	6.29
O=C(O)c1cc(N2CCC(F)(F)C2)c2c(C3CCC3)nn(-c3ccccc3)c2n1 [compound 441]	5.82
CO[C@@H]1CCN(CC2CCN(c3cc(C(=O)O)nc4c3c(C3CCC3)nn4-c3ccccc3)CC2)C1 [compound 803]	6.17
O=C(O)c1cc(N2CCC(CN3CC(OCC(F)F)C3)CC2)c2c(C3CCC3)nn(-c3ccccc3)c2n1 [compound 835]	7.17
Cc1nn(-c2ccccc2)c2nc(C(=O)O)cc(OC3CC4(COC4)C3)c12 [compound 344]	5.75
COCCOC1CCN(c2cc(C(=O)O)nc3c2c(C2CCC2)nn3-c2ccccc2)CC1 [compound 685]	6.61

Would you please give the reported pEC50 of CC(C)c1nn(-c2ccc(F)cc2)c2nc(C(=O)O)cc(N3CC(N4CCC(N(C)C5COC5)CC4)C3)c12 [compound 758] with ΔF508-CFTR (Homo sapiens, UniProt P13569, DEL508-508)?
6.09

###

system-tested: ΔF508-CFTR (Homo sapiens, UniProt P13569, DEL508-508)
Construct: host or cells: CFBE41o-, doxycycline-inducible
procedure-text: CFTR cell surface levels using HRP-tagged ΔF508-CFTR expressing CFBE cells, in the presence of a co-corrector
Format: cell-based
experimental-conditions: HRP-tagged ΔF508-CFTR expressing CFBE cells, in the presence of 3 μM co-corrector
Is % Activation at least 400%? Then true (1). If not, false (0).

Record excerpt, results attached:
CC(=O)N1CCN(c2cc(C(=O)O)nc3c2c(C)nn3-c2ccccc2)CC1	false (0)
COC1(C)CCN(c2cc(C(=O)O)nc3c2c(C(C)C)nn3-c2ccc(F)cc2)CC1	false (0)
O=C(O)c1cc(CN2CCC(N3CCOCC3)CC2)c2c(C3CCC3)nn(-c3ccc(F)cc3)c2n1	false (0)
COCCN(C)c1ncc(-c2cc(C(=O)O)nc3c2c(C(C)C)nn3-c2cccc(N3CCOCC3)c2)cn1	true (1)

Record "Cc1cccc(-n2nc(C(C)C)c3c(N4CC(F)C4)cc(C(=O)O)nc32)c1" ; criterion: % Activation no lower than 400%. Met?
false (0)

Record CC(=O)N1CC[C@H]2CN(c3cc(C(=O)O)nc4c3c(C3CCC3)nn4-c3ccccc3)CC[C@H]21 (single isomer, unassigned) ; criterion: % Activation no lower than 400%. Met?
true (1)

Record CC(c1ccc(-c2cc(C(=O)O)nc3c2c(C2CCC2)nn3C2CCCCC2)cc1)N1CCOCC1 (stereo not drawn) ; criterion: % Activation no lower than 400%. Met?
false (0)

Record "CN(c1ccc(-c2cc(C(=O)O)nc3c2c(C2CCC2)nn3-c2cccc(N3CCCC3)c2)cc1)C1CCOCC1" ; criterion: % Activation no lower than 400%. Met?
true (1)

Record Cc1nn(-c2ccccc2)c2nc(C(=O)O)cc(-c3ccc(N4CCC(N(C)C)C4)cc3)c12 (stereo not drawn) ; criterion: % Activation no lower than 400%. Met?
false (0)

Record "COCCCN1CCN(c2cc(C(=O)O)nc3c2c(C(C)C)nn3-c2ccc(F)cc2)CC1" ; criterion: % Activation no lower than 400%. Met?
false (0)

Record "Cc1nn(-c2ccccc2)c2nc(C(=O)O)cc(-c3ccc(N4CCOCC4)c(Br)c3)c12" ; criterion: % Activation no lower than 400%. Met?
false (0)

Record CC1OCC(Oc2cc(C(=O)O)nc3c2c(C2CCC2)nn3-c2ccccc2)CO1 (stereo not drawn) ; criterion: % Activation no lower than 400%. Met?
false (0)

Record "O=C(O)c1cc(N2CCC(N3CCOCC3)CC2)c2c(C3CCC3)nn(-c3cccc(C(F)(F)F)c3)c2n1" ; criterion: % Activation no lower than 400%. Met?
true (1)

Record "Cc1nn(C2CCCCC2)c2nc(C(=O)O)cc(-c3ccc(N4CCOCC4)cc3)c12" ; criterion: % Activation no lower than 400%. Met?
false (0)

###

system-tested: CFTR ΔF508 (Homo sapiens, UniProt P13569, DEL508-508)
Construct: bronchial epithelial cells isolated from CF patients homozygous for the CFTR ΔF508 mutation; McGill University; Asterand; University of North Carolina hAEC-CF; host or cells: primary human bronchial epithelial cells from CF patients homozygous for ΔF508
procedure-text: Chronic TECC assay on primary bronchial epithelial cells (corrector, co-corrector and potentiator)
Assay type: cell-based
experimental-conditions: chronic TECC; 1 μM; AUC = full area under the curve upon forskolin stimulation; with co-corrector and potentiator, 24 hours
Experimental: Primary Bronchial Epithelial Cells Protocol The TECC (Tranepithelial Clamp Circuit, EP-design) assay measures the functionality of the cystic fibrosis Transmembrane Conductance regulator (CFTR) by measuring the short circuit current (Isc) generated over the basolateral and apical membrane of lung epithelial cells. In TECC the transepithelial potential PD and transepithelial resistance (Rt)) are measured in an open circuit and transformed to Ieq using Ohm's law. […]
Is % Activity at 1 μM (AUC**) at least 200%? Then y. If not, n.

Record excerpt, results attached:
COC[C@H]1CCN(CC2CCN(c3cc(C(=O)O)nc4c3c(C3CCC3)nn4-c3ccccc3)CC2)C1	y
COCCN1CCC2(CC1)CCN(c1cc(C(=O)O)nc3c1c(C1CCC1)nn3-c1ccc(F)cc1)CC2	y

Record "O=C(O)c1cc(N2CCC(N3CCC(F)CC3)CC2)c2c(C3CCC3)nn(-c3ccc(F)cc3)c2n1" ; criterion: % Activity at 1 μM (AUC**) no lower than 200%. Met?
y

Record "CO[C@@H]1CCN(CC2CCN(c3cc(C(=O)O)nc4c3c(C3CCC3)nn4-c3ccccc3)CC2)C1" ; criterion: % Activity at 1 μM (AUC**) no lower than 200%. Met?
n

Record "O=C(O)c1cc(N2CCC(N3CCCCC3)CC2)c2c(C3CCC3)nn(-c3ccccc3)c2n1" ; criterion: % Activity at 1 μM (AUC**) no lower than 200%. Met?
n

Record "CC(C)c1nn(-c2ccc(F)cc2)c2nc(C(=O)O)cc(N3CCC(N4CCN(C5CC5)CC4)CC3)c12" ; criterion: % Activity at 1 μM (AUC**) no lower than 200%. Met?
n

###

system-tested: ΔF508-CFTR (Homo sapiens, UniProt P13569, DEL508-508)
Construct: host or cells: CFBE41o-, doxycycline-inducible
procedure-text: CFTR cell surface levels using HRP-tagged ΔF508-CFTR expressing CFBE cells, in the presence of a co-corrector
Assay type: cell-based
experimental-conditions: HRP-tagged ΔF508-CFTR expressing CFBE cells, in the presence of 3 μM co-corrector; read-out: EC50
property-measured: EC50 (µM)
Number only, in µM; omit the unit.

Known results for compounds:
O=C(O)c1cc(N2CCN(CCO)CC2)c2c(C3CCC3)nn(-c3ccccc3)c2n1 [compound 722]	1.67
CC(C)c1nn(-c2ccc(F)cc2)c2nc(C(=O)O)cc(N3CCN(CCO)CC3)c12 [compound 773]	5
CCN(CC)CCC1CCN(c2cc(C(=O)O)nc3c2c(C2CCC2)nn3-c2ccccc2)CC1 [compound 448]	0.646

Fill in reported EC50 for this entry: COC1CCCN(c2cc(C(=O)O)nc3c2c(C2CCC2)nn3-c2ccccc2)C1 (stereo not shown) [compound 468]
0.371

Fill in reported EC50 for this entry: Cc1cccc(-n2nc(C(C)C)c3c(N4CCC5(CCCCC5)CC4)cc(C(=O)O)nc32)c1 [compound 360]
1.03

Fill in reported EC50 for this entry: Cc1nn(-c2ccccc2)c2nc(C(=O)O)cc(N3CC4(CCCCO4)C3)c12 [compound 312]
2.32

Fill in reported EC50 for this entry: CC(C)c1nn(C2CCN(CC(F)(F)F)CC2)c2nc(C(=O)O)cc(-c3ccc(N4CCOCC4)cc3)c12 [compound 117]
0.765
